The reported numbers originate from paper PMC7769672.

- System: RAW 264.7 cells
- assay remarks: NO assay (nitrite by Griess reagent in LPS-stimulated cells)
- Format: cell-based, murine
- details: Mus musculus, RAW264.7; Table 1 positive control; read-out: Anti-inflammatory NO (IC50), positive control
quantity name: IC50
Respond with the figure and its unit, in that order.

Dear colleague, please send me the reported IC50 for [H]/N=C(/NC)NCCC[C@H](N)C(=O)O [L-NMMA, reference compound] when you can.
36.3 µM

* * *

- assay remarks: DPPH radical scavenging activity assay
- details: Table 3, isolated compounds; listed as Comp. 5
- Method: DPPH radical scavenging activity was measured by using the method described by Blois and Ozgen et al.. DPPH solution dissolved in methanol was added to the sample, which was diluted to the required concentration, and the reaction was carried out at room temperature for 30 min. Absorbance was measured at 517 nm using an ELISA reader. The antioxidant butylated hydroxyanisole (BHA) was used as a positive control, and the IC50 value of the sample was determined.
quantity name: pIC50
Field pIC50 (float): negative decimal logarithm of the concentration in molar.

Using known records, supply pIC50 for COC(=O)C1OC(Oc2c(-c3ccc(O)cc3)oc3cc(O)cc(O)c3c2=O)C(O)C(O)C1O (stereo not shown) [Compound 5, kaempferol-3-(6-methylglucuronide)]
4.43
